growth inhibition values, listed per item
# test_description: NCI Yeast Anticancer Drug Screen. Data for the mlh1 rad18 strain (AID 175)
# condition_set: S. cerevisiae mlh1 rad18 strain growth inhibition; at 5.0 µM (retest, dose inferred, filed as 0.5); hits give high values
This is part of a sample that, as a whole, favours compounds with a hit. Of some 79,000 tested, about 15% had one in any assay.
Give the value in % but do not write % after it.

Below, each entry is followed by its recorded growth inhibition result.
molecule: O=c1sc(=S)[nH]c2ccccc12
growth inhibition / %: 16
--
molecule: OC(c1ccccc1)c1cccc(Br)c1 (configuration not stated)
growth inhibition / %: 14
--
molecule: C/C(=N\NC(=S)Nc1ccc(S(N)(=O)=O)cc1)c1ccccn1
growth inhibition / %: 39

Form field growth inhibition, entry O=C(NNc1ccccc1)C(O)C(=O)C(O)C(O)C(O)CO (configuration not stated) : 5

Form field growth inhibition, entry N#CC1(C#N)C2C=CC(C3CCC=C32)C1(C#N)C#N (configuration not stated) : 25

Form field growth inhibition, entry CN(C)C(=S)Oc1ccc(C(C)(C)C)cc1 : -129

Form field growth inhibition, entry CC(C)C(O)(C(=O)OCN1C(=O)C2C3C=CC(C2C1=O)C1C2C(=O)N(COC(=O)C(O)(C(C)C)C(C)O)C(=O)C2C31)C(C)O (configuration not stated) : -3
